Values from PubChem BioAssay AID2472

The entries below come with measured activity change, negative = inhibition values attached.
Assay: qHTS Assay for Inhibitors of Fructose-1,6-bisphosphate Aldolase from Giardia Lamblia: Coupling assay counterscreen; also: % is scaled to controls: 0 for no effect and ±100 for the full control effect
Conditions: coupling enzyme system counterscreen, AmpLite Red fluorescence; at 58.2 µM (top of the series)
In all, about 290,000 compounds went through this assay and about 2,000 (0.69%) were called active. Many of the other results were omitted from the sample, so actives are more common in it than they were.
Write the value in % as a bare number.

Worked examples, 8 compounds total:
[[record]]
chem_smiles = "Clc1ccccc1CSc1nnc(-c2ccco2)c(-c2ccco2)n1"
measured_number = -6.43

[[record]]
chem_smiles = "Cc1cc(Br)ccc1NC(=S)NC1CCCC1"
measured_number = 2.32

[[record]]
chem_smiles = "CC(C)N(C(=O)c1ccc(-c2ccccc2F)cc1)C(C)C"
measured_number = -0.0112

[[record]]
chem_smiles = "Oc1cc2c(cc1O)CN(C(=S)NCCc1ccc(Cl)cc1)CCC2"
measured_number = -10.5

[[record]]
chem_smiles = "Cc1cccc(C(=O)Nc2nnc(S(=O)(=O)N3CCCCCC3)s2)c1"
measured_number = -16.7

[[record]]
chem_smiles = "Cc1cc(C)cc(NC(=O)N2CCCCCCC2)c1"
measured_number = 1.15

[[record]]
chem_smiles = "O=[N+]([O-])c1ccc(O)c(/C=N/Nc2ccccc2[N+](=O)[O-])c1"
measured_number = 0.257

[[record]]
chem_smiles = "COc1cccc(-c2coc3cc4oc(=O)c(CC(=O)O)c(C)c4cc23)c1"
measured_number = 12.3


# next compound below
Task item: Field request: activity change, negative = inhibition | item: COc1ccc(CCNC(=O)CSCc2ccc(Br)cc2)cc1OC
Reply: -0.53
